// molecules with reported Ki on Protein kinase C alpha type (Homo sapiens), multi-publication

Here are 3 molecules together with their reported answers.
{"molecule": "CC(C)C[C@H]1CC(O)(c2cccc(-c3n[nH]c4ncccc34)n2)CCN1 (stereo partly drawn)", "study target": "Protein kinase C alpha type (Homo sapiens)", "Ki": "> 1.25 µM"}
{"molecule": "NC(c1ccccc1)C1CCCN(c2ccc(F)c(-c3n[nH]c4ncccc34)n2)C1 (stereo not drawn)", "study target": "Protein kinase C alpha type (Homo sapiens)", "Ki": "> 1.25 µM"}
{"molecule": "CCC(C)(CN)c1ccsc1-c1ccnc2[nH]ncc12 (stereo not drawn)", "study target": "Protein kinase C alpha type (Homo sapiens)", "Ki": "> 1.25 µM"}

input: Report Ki for Fc1ccc(CNc2ncc3nc(-c4c(F)cccc4Cl)n(CC4CCNC4)c3n2)cc1Cl (stereo not drawn) please.
output: > 10 µM

input: Also, Fc1ccc(N2CCNC3(CCC3)C2)nc1-c1n[nH]c2ncccc12 please.
output: < 2.8 µM
